Hi there, I'd appreciate the recorded MIC for every entry that follows.
Tested on: E. faecium 119-39A (Van S)
PROTOCOL_TEXT: MIC determination
Type: cell-based
EXPERIMENTAL_PARAMETERS: Enterococcus faecium; vancomycin-susceptible clinical isolate; Tables 1 and 5; read-out: MIC

// returns reported MIC for input CC(=O)NC[C@H]1CN(c2ccc(N3CCOCC3)c(F)c2)C(=O)O1 [linezolid, reference compound]
2 µg/mL

# MIC lookup, item Oc1ccc(-c2nc(-c3ccc(Oc4ccccc4)c(O)c3)no2)cc1 [Compound 51a]
8 µg/mL

# lookup: MIC of Fc1ccc(Oc2ccc(-c3noc(-c4n[nH]cc4Cl)n3)cc2)cc1 [Compound 60c]
> 128 µg/mL

What MIC value was documented for this molecule, [N-]=[N+]=Nc1cc(-c2noc(-c3ccc(O)cc3)n2)ccc1Oc1ccccc1 [Compound 53a] ?
4 µg/mL

Look at this molecule and give its reported MIC. FC(F)(F)c1ccc(Oc2ccc(-c3noc(-c4n[nH]cc4Cl)n3)cc2)cc1 [Compound 60b]
> 128 µg/mL

Please report the recorded MIC for Oc1ccc(-c2nc(-c3ccc(Oc4ccccc4)cc3Cl)no2)cc1 [Compound 52a] .
4 µg/mL

Please report the recorded MIC for Oc1ccc(-c2nc(-c3ccc(Oc4ccc(C(F)(F)F)cc4)cc3)no2)cc1 .
1 µg/mL

Recorded values, source patent US10662164B2.
